Biological target: UniProt P51812
Sequence (P51812 whole entry, looked up): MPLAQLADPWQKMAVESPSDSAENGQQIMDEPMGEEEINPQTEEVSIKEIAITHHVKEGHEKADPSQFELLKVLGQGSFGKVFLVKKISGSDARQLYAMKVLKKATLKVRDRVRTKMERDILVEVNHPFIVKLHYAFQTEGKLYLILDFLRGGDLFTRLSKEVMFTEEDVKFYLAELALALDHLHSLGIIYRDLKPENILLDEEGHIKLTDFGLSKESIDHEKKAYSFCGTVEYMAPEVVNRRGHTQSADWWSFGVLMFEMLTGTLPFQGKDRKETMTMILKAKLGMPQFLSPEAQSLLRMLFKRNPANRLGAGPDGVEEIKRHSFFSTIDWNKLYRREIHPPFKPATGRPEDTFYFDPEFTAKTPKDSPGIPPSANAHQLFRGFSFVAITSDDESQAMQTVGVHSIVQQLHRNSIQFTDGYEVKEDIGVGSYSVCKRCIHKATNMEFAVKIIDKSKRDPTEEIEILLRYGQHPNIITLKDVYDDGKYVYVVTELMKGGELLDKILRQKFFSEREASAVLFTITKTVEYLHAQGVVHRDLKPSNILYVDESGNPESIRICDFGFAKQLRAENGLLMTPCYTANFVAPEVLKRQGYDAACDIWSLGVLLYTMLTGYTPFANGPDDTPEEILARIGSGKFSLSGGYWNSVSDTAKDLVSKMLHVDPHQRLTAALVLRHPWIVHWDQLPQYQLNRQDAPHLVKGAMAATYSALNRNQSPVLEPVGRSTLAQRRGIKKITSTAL
Assay: radiometric filter-binding kinase assay, Kinase HotSpot
Conditions: compound 0.5 µM; ATP 10 µM
Hi! Just check whether residual activity is below 90%. Below gives Satisfied, equal or above gives Not satisfied.

>>> answer_label("FC(F)(F)c1ccc(/C=C/c2nc(COc3ccc(CCCCn4ccnn4)cc3)co2)cc1")
"Not satisfied"
>>> answer_label("N/C(=N\\N=C/c1ccc(-c2cccc([N+](=O)[O-])c2)o1)N[N+](=O)[O-]")
"Not satisfied"
>>> answer_label("O=C1NC(=O)c2c1c1c3ccccc3[nH]c1c1[nH]c3cc(Br)ccc3c21")
"Satisfied"
>>> answer_label("O=c1[nH]c2ccccc2n1C1CCN(Cc2ccc(-c3nc4cc5[nH]cnc5cc4nc3-c3ccccc3)cc2)CC1")
"Not satisfied"
>>> answer_label("CN[C@@H]1C[C@H]2O[C@@](C)([C@@H]1OC)n1c3ccccc3c3c4c(c5c6ccccc6n2c5c31)C(=O)NC4")
"Satisfied"
>>> answer_label("Cn1cc(/C=C2\\C(=O)Nc3ccc(S(N)(=O)=O)cc32)c2ccccc21")
"Satisfied"
>>> answer_label("COc1cc2c(cc1OC)-c1[nH]nc(Nc3cccc(F)c3)c1C2")
"Not satisfied"
>>> answer_label("N#Cc1c(NC(=O)c2cccc3ccccc23)sc2c1CCCC2")
"Not satisfied"

====

A collection of compounds and their measured residual activity
Target: RPS6KB2 (human) (UniProt Q9UBS0)
Sequence (Q9UBS0 whole entry, looked up): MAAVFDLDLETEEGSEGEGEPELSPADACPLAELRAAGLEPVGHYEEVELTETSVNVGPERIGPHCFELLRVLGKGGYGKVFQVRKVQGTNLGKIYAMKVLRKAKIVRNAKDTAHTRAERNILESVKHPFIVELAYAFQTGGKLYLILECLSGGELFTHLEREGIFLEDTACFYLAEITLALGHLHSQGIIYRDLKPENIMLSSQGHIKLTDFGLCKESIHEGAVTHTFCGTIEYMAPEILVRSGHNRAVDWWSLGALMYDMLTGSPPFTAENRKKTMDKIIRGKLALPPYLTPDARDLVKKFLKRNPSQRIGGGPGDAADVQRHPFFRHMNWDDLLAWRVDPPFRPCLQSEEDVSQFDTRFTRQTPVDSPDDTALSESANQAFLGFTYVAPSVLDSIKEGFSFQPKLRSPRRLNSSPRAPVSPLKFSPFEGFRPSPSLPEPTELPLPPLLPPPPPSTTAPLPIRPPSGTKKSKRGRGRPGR
Assay: radiometric filter-binding kinase assay, Kinase HotSpot
Settings: compound 0.5 µM; ATP 10 µM
Readout name: residual activity (%)

>>> reported("CCc1nc(-c2ccc(OC)cc2)[nH]c1-c1ccncc1")
95.6
>>> reported("c1ccc(-c2cnc(Nc3ccc(OCCN4CCCC4)cc3)s2)cc1")
92.7
>>> reported("N#C/C(=C1/Nc2ccccc2S1)c1ccnc(NCCc2cccnc2)n1")
96.5
>>> reported("O=C1NC(=O)c2cc(Nc3ccc(F)cc3)c(Nc3ccc(F)cc3)cc21")
93.9
>>> reported("CCOc1cc2ncnc(Nc3cccc(Br)c3)c2cc1OCC")
102
>>> reported("O=c1c2ccccc2[nH]c(=S)n1CCN1CCC(=C(c2ccc(F)cc2)c2ccc(F)cc2)CC1")
102
>>> reported("Cn1cc(/C=C2\\C(=O)Nc3ccc(S(N)(=O)=O)cc32)c2ccccc21")
94.6
>>> reported("Nc1ncnc2c1cnn2-c1ccccc1")
87.5
>>> reported("O=C1NC(=O)c2c1c1c3ccccc3[nH]c1c1[nH]c3cc(Br)ccc3c21")
83.9
>>> reported("N#CCCc1ccc2c(c1)-c1[nH]c3ccc([N+](=O)[O-])cc3c1CC(=O)N2")
96.1

====

A collection of molecules and their measured residual activity
Target: STK11 (human) (UniProt Q15831)
Sequence (Q15831 whole entry, looked up): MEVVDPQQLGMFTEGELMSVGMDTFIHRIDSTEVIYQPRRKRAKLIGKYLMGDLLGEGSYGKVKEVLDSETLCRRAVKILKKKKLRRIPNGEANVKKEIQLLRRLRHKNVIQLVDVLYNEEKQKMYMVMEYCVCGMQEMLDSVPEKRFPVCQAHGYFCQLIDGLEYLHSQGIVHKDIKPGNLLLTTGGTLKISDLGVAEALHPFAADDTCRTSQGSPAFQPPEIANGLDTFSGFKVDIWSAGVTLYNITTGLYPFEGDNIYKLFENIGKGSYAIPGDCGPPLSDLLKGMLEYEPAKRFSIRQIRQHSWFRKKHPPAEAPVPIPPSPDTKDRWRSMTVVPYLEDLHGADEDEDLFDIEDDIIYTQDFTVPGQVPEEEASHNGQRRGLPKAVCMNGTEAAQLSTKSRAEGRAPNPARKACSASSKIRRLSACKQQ
Assay: radiometric filter-binding kinase assay, Kinase HotSpot
Conditions: compound 0.5 µM; ATP 10 µM
Readout name: residual activity (%)

>>> reported("FC(F)(F)c1ccc(/C=C/c2nc(COc3ccc(CCCCn4ccnn4)cc3)co2)cc1")
104
>>> reported("COc1cc2ncnc(Nc3ccc(O)c(Br)c3)c2cc1OC")
103
>>> reported("CCCCc1c(-c2ccc(O)cc2)[nH]c2nccnc12")
33.5
>>> reported("N#Cc1c(NC(=O)c2cccc3ccccc23)sc2c1CCCC2")
96.1
>>> reported("O=c1c2ccccc2[nH]c(=S)n1CCN1CCC(=C(c2ccc(F)cc2)c2ccc(F)cc2)CC1")
107
>>> reported("Cc1cc(Nc2nc(-c3ccccc3)nc3ccccc23)n[nH]1")
69
>>> reported("COc1cc2c(Nc3ccc(Br)cc3F)ncnc2cc1OCC1CCN(C)CC1")
105
>>> reported("O=C1NC(=O)c2c1c1c3ccccc3[nH]c1c1[nH]c3cc(Br)ccc3c21")
90.2
>>> reported("N/C(=N\\N=C/c1ccc(-c2cccc([N+](=O)[O-])c2)o1)N[N+](=O)[O-]")
98.7
>>> reported("O=c1cc(N2CCOCC2)oc2c(-c3ccccc3)cccc12")
101
>>> reported("O=C(O)c1ccc2c3c1cccc3c(=O)n1c3ccccc3nc21")
96.6
>>> reported("COc1cc2c(cc1OC)-c1[nH]nc(Nc3cccc(F)c3)c1C2")
104
>>> reported("COc1cc2c(N3CCN(C(=O)Nc4ccc(OC(C)C)cc4)CC3)ncnc2cc1OCCCN1CCCCC1")
104
>>> reported("O=S(=O)(NCCNC/C=C/c1ccc(Br)cc1)c1cccc2cnccc12")
102

====

Target: PRKCB1 (human) (UniProt P05771)
Sequence (P05771 whole entry, looked up): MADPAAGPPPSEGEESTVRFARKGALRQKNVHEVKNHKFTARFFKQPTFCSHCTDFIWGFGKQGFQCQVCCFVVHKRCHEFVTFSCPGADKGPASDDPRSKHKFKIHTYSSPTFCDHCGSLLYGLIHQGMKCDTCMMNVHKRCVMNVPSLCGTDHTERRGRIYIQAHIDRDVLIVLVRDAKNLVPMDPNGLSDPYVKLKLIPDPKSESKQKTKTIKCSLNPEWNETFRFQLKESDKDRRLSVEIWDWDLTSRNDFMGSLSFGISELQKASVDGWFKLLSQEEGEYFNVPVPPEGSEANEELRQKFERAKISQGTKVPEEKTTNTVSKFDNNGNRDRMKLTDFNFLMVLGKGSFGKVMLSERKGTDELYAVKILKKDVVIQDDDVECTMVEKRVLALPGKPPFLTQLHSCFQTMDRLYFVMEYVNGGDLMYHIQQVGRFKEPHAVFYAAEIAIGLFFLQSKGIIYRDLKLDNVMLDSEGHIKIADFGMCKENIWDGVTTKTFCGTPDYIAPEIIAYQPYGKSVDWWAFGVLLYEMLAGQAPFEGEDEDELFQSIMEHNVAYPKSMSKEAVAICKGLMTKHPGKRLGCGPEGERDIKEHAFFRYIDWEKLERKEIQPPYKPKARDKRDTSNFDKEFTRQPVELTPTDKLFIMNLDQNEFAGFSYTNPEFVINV
Assay: radiometric filter-binding kinase assay, Kinase HotSpot
Settings: compound 0.5 µM; ATP 10 µM
Readout name: residual activity (%)

>>> reported("FC(F)(F)c1ccc(/C=C/c2nc(COc3ccc(CCCCn4ccnn4)cc3)co2)cc1")
103
>>> reported("O=c1[nH]c2ccccc2n1C1CCN(Cc2ccc(-c3nc4cc5[nH]cnc5cc4nc3-c3ccccc3)cc2)CC1")
108
>>> reported("N#C/C(=C1/Nc2ccccc2S1)c1ccnc(NCCc2cccnc2)n1")
90.8
>>> reported("CCCCc1c(-c2ccc(O)cc2)[nH]c2nccnc12")
95.5
>>> reported("N#CCCc1ccc2c(c1)-c1[nH]c3ccc([N+](=O)[O-])cc3c1CC(=O)N2")
97.4
>>> reported("CCc1nc(-c2ccc(OC)cc2)[nH]c1-c1ccncc1")
104
>>> reported("COc1cc2ncnc(Nc3ccc(O)c(Br)c3)c2cc1OC")
96.6
>>> reported("CCOc1cc2ncnc(Nc3cccc(Br)c3)c2cc1OCC")
100
>>> reported("O=C(O)c1ccc2c3c1cccc3c(=O)n1c3ccccc3nc21")
89.8
>>> reported("O=S(=O)(NCCNC/C=C/c1ccc(Br)cc1)c1cccc2cnccc12")
88.3
>>> reported("O=c1c(-c2ccc(F)cc2)c(-c2ccncc2)[nH]n1-c1ccc(Cl)cc1")
84.7
>>> reported("O=C(c1ccccc1)c1ccc(N2CCOCC2)cc1O")
90.1
>>> reported("O=c1c2ccccc2[nH]c(=S)n1CCN1CCC(=C(c2ccc(F)cc2)c2ccc(F)cc2)CC1")
96
>>> reported("c1ccc(-c2cnc(Nc3ccc(OCCN4CCCC4)cc3)s2)cc1")
108
>>> reported("O=C1NC(=O)c2c1c1c3ccccc3[nH]c1c1[nH]c3cc(Br)ccc3c21")
78.6

====

A collection of molecules and their measured residual activity
Biological target: DCLK2 (human) (UniProt Q8N568)
Sequence (Q8N568 whole entry, looked up): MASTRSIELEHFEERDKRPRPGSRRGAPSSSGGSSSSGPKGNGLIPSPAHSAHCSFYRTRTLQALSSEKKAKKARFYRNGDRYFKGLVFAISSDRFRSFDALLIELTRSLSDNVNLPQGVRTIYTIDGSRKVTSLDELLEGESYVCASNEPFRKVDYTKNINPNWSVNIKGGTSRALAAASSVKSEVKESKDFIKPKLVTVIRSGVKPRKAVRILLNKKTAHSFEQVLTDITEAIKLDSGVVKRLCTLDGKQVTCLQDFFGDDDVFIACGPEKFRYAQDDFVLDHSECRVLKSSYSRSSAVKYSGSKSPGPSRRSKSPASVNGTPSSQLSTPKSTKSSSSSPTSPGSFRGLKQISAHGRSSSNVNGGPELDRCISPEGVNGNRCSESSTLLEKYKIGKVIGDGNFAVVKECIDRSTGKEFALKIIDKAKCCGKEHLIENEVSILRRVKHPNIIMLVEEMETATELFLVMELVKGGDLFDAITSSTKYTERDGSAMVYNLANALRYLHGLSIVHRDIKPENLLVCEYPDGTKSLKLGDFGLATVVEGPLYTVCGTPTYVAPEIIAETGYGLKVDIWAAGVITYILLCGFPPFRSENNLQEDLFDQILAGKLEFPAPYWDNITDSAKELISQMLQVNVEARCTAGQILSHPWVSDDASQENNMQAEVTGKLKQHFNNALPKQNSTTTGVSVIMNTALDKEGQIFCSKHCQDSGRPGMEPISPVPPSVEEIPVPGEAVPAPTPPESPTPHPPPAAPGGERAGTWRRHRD
Assay: radiometric filter-binding kinase assay, Kinase HotSpot
Settings: compound 0.5 µM; ATP 10 µM
Readout name: residual activity (%)

>>> reported("CCOc1cc2ncnc(Nc3cccc(Br)c3)c2cc1OCC")
99.5
>>> reported("O=c1c(-c2ccc(F)cc2)c(-c2ccncc2)[nH]n1-c1ccc(Cl)cc1")
99.9
>>> reported("O=c1c2ccccc2[nH]c(=S)n1CCN1CCC(=C(c2ccc(F)cc2)c2ccc(F)cc2)CC1")
101
>>> reported("Nc1ncnc2c1cnn2-c1ccccc1")
101
>>> reported("O=c1[nH]c2ccccc2n1C1CCN(Cc2ccc(-c3nc4cc5[nH]cnc5cc4nc3-c3ccccc3)cc2)CC1")
107

====

Biological target: MAPK13 (human) (UniProt O15264)
Sequence (O15264 whole entry, looked up): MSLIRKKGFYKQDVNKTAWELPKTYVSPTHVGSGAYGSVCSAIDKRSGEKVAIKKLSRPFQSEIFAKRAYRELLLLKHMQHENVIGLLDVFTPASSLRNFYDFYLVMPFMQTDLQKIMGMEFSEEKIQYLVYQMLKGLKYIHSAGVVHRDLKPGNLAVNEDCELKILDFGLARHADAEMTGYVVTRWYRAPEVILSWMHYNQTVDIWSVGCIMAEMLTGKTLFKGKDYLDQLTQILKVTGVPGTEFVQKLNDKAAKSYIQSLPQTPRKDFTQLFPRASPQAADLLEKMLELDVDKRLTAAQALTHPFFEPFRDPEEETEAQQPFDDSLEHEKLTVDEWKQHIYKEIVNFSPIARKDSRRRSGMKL
Assay: radiometric filter-binding kinase assay, Kinase HotSpot
Details: compound 0.5 µM; ATP 10 µM
Readout name: residual activity (%)

>>> reported("COc1cc2c(N3CCN(C(=O)Nc4ccc(OC(C)C)cc4)CC3)ncnc2cc1OCCCN1CCCCC1")
99.3
>>> reported("FC(F)(F)c1ccc(/C=C/c2nc(COc3ccc(CCCCn4ccnn4)cc3)co2)cc1")
99.1
>>> reported("COc1cc2ncnc(Nc3ccc(O)c(Br)c3)c2cc1OC")
102
>>> reported("O=C1NC(=O)c2c1c1c3ccccc3[nH]c1c1[nH]c3cc(Br)ccc3c21")
99.1
>>> reported("c1ccc(-c2cnc(Nc3ccc(OCCN4CCCC4)cc3)s2)cc1")
104
>>> reported("COc1cc2c(Nc3ccc(Br)cc3F)ncnc2cc1OCC1CCN(C)CC1")
95.5
>>> reported("Cc1cc(Nc2nc(-c3ccccc3)nc3ccccc23)n[nH]1")
106
>>> reported("COc1cc2c(cc1OC)-c1[nH]nc(Nc3cccc(F)c3)c1C2")
99.7
>>> reported("CCCCc1c(-c2ccc(O)cc2)[nH]c2nccnc12")
101
>>> reported("O=S(=O)(NCCNC/C=C/c1ccc(Br)cc1)c1cccc2cnccc12")
101
>>> reported("N#Cc1c(NC(=O)c2cccc3ccccc23)sc2c1CCCC2")
109

====

Target: UniProtKB P12931
Sequence (P12931 whole entry, looked up): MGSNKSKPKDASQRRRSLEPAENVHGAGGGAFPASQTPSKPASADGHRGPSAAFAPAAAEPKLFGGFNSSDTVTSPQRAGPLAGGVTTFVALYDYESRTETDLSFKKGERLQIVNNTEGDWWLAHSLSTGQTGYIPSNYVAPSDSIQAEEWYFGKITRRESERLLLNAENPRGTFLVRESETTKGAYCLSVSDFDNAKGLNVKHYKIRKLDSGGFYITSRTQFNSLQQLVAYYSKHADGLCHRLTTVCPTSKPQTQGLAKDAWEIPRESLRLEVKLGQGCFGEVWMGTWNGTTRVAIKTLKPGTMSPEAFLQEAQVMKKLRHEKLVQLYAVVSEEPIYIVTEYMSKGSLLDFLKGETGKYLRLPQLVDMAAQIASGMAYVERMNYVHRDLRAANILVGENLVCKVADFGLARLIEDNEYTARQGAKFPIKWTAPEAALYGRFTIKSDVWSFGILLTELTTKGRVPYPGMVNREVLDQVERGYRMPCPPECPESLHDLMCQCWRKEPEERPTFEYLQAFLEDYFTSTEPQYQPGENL
Assay: radiometric filter-binding kinase assay, Kinase HotSpot
Conditions: compound 0.5 µM; ATP 10 µM
Readout name: residual activity (%)

>>> reported("O=S(=O)(NCCNC/C=C/c1ccc(Br)cc1)c1cccc2cnccc12")
90.1
>>> reported("O=C(c1ccccc1)c1ccc(N2CCOCC2)cc1O")
97.8
>>> reported("O=C(O)c1ccc2c3c1cccc3c(=O)n1c3ccccc3nc21")
96.3
>>> reported("Nc1ncnc2c1cnn2-c1ccccc1")
96.9
>>> reported("CCc1nc(-c2ccc(OC)cc2)[nH]c1-c1ccncc1")
95.3
>>> reported("COc1cc2c(Nc3ccc(Br)cc3F)ncnc2cc1OCC1CCN(C)CC1")
11

Cited source: the kinase profiling compilation of Christmann-Franck et al. (2016)
